biological target: YAP-TEAD interaction (Homo sapiens, UniProt P28347); construct: expressed in transfected cells; host or cells: HEK293 GripTite 293 MSR (Invitrogen R795-07); test: Cell-based TEAD-GAL4 transactivation assay (luciferase reporter); conditions: HEK293 cells transfected with TEAD1-Gal4, YAP mutant (S127A, S397A) and luciferase reporter; compounds 0.1 μM to 30 μM, 24 h
Sequence (P28347 whole entry, the tested form may be a part): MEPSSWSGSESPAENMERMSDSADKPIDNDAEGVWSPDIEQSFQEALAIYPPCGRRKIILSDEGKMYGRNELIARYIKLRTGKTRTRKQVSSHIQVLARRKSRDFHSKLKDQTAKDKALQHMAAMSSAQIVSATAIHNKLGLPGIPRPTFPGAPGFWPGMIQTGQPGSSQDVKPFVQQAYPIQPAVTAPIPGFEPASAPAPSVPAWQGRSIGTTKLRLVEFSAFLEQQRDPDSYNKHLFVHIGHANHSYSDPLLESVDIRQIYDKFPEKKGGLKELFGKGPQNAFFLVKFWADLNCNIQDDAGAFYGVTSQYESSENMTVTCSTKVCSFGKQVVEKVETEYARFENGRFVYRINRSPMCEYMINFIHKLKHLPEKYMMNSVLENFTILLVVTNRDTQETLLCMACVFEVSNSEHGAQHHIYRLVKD
READOUT_TYPE: IC50 (nM)

// below: answered compounds
COc1cc(OC)c2c(c1)C(N1N=C(c3ccc(B(O)O)c(OC)c3)CCC1C)=NS2(=O)=O (stereo not shown) :: 2350
CCN(/N=C/c1ccc2c(c1)COB2O)c1ncnc2c(C(=O)NC3COC3)csc12 :: 1740
COc1ccc2c(c1)S(=O)(=O)N=C2N(CC(C)C)/N=C/c1ccc2c(c1)COB2O :: 3840
COc1ccc2ncnc(N(CC(C)C)/N=C/c3ccc(B(O)O)c(OC)c3)c2c1 :: 3360
CCN(/N=C/c1ccc2c(c1)COB2O)c1ncnc2nc(SC)sc12.Cl [Ex83, hydrochloride] :: 230
COCc1csc2c(N(C)/N=C/c3ccc4c(c3)COB4O)ncnc12 :: 700
CCN(/N=C/c1ccc2c(c1)COB2O)c1ncnc2[nH]ncc12 :: 650
COc1cc(C2=NN(c3ncnc4c(OC)cccc34)C(C)CC2)ccc1B(O)O (single isomer, unassigned; isomer 2) [Ex125] :: 3520

1: Cc1csc2c(N3N=C(c4ccc5c(c4)COB5O)CCC3C)ncnc12 (single isomer, unassigned; (+)) [Ex119]
2: CCN(/N=C/c1ccc2c(c1)COB2O)c1ncnc2cc(C)sc12
Between 1 and 2 , whose recorded IC50 is greater? Return value: the label identifying the chosen record.
2

I: CCN(/N=C/c1ccc2c(c1)COB2O)c1ncnc2ccsc12
II: Cc1ccc2c(c1)S(=O)(=O)N=C2N(CC(C)C)/N=C/c1ccc2c(c1)COB2O
III: COc1cc(C2=NN(C3=NS(=O)(=O)c4ccccc43)C(C)CC2)ccc1B(O)O (stereo not shown)
IV: CCN(/N=C/c1ccc2c(c1)COB2O)c1ncnc2c(C)csc12
V: COCCCN(/N=C/c1ccc2c(c1)COB2O)c1ncnc2nc(SC)sc12
Sort ascending by IC50. Kindly provide the labels arranged according to the requested ordering.
V, IV, I, III, II
(V: 100 nM, IV: 260 nM, I: 510 nM, III: 1660 nM, II: 4130 nM)

I: COc1cc(C2=NN(C3=NS(=O)(=O)c4ccccc43)CC(C)(C)C2)ccc1B(O)O
II: COc1cc(C2=NN(c3ncnc4ccsc34)C(C)CC2)ccc1B(O)O (stereo not shown)
III: CCN(/N=C/c1ccc2c(c1)COB2O)C1=NS(=O)(=O)c2ccccc21
IV: CCN(/N=C/c1ccc2c(c1)COB2O)c1ncnc2cc(F)ccc12
Ordering criterion: IC50; begin with the maximum. Kindly provide the labels arranged according to the requested ordering.
III, I, II, IV
(III: 6460 nM, I: 3060 nM, II: 1860 nM, IV: 820 nM)

a: CCN(/N=C/c1ccc2c(c1)COB2O)c1ncnc2c(C(=O)N(C)C)csc12
b: CCN(/N=C/c1ccc2c(c1)COB2O)c1ncnc2c(C)n[nH]c12
Between a and b , whose recorded IC50 is greater? Return value: the label identifying the chosen record.
a

---

molecular target: YAP-TEAD interaction (Homo sapiens, UniProt P28347); construct: expressed in transfected cells; host or cells: HEK293 GripTite 293 MSR (Invitrogen R795-07); assay: Cell-based TEAD-GAL4 transactivation assay (luciferase reporter); conditions: HEK293, 24 h, HEK293 cells transfected with TEAD1-Gal4, YAP mutant (S127A, S397A) and luciferase reporter, compounds 0.1 μM to 30 μM, read-out: TEAD-GAL4 Transactivation activity Max Act
READOUT_TYPE: Emax (%)

CCN(/N=C/c1ccc2c(c1)COB2O)c1ncnc2cc[nH]c12 :: 79
CCN(/N=C/c1ccc2c(c1)COB2O)c1ncnc2c(C(=O)NC3COC3)csc12 :: 79
COc1cc(/C=N/N(CC(C)C)C2=NS(=O)(=O)c3cc(C#N)ccc32)ccc1B(O)O :: 78

---

molecular target: YAP-TEAD interaction (Homo sapiens, UniProt P28347); construct: expressed in transfected cells; host or cells: HEK293 GripTite 293 MSR (Invitrogen R795-07); assay: Cell-based TEAD-GAL4 transactivation assay (luciferase reporter); conditions: HEK293, 24 h, HEK293 cells transfected with TEAD1-Gal4, YAP mutant (S127A, S397A) and luciferase reporter, compounds 0.1 μM to 30 μM, read-out: TEAD-GAL4 Transactivation activity Max Act
READOUT_TYPE: Emax (%)

CC(C)CN(/N=C/c1ccc2c(c1)CCCOB2O)C1=NS(=O)(=O)c2ccccc21 :: 73
COc1cc(C2=NN(C3=NS(=O)(=O)c4ccccc43)CC(C)(C)C2)ccc1B(O)O :: 84
Cc1csc2c(N(CCO)/N=C/c3ccc4c(c3)COB4O)ncnc12 :: 79
COc1cc(/C=N/N(CC(C)C)c2ncnc3ccsc23)ccc1B(O)O :: 87
COCCCN(/N=C/c1ccc2c(c1)COB2O)C1=NS(=O)(=O)c2ccccc21 :: 78
COCCN(/N=C/c1ccc(B(O)O)c(OC)c1)c1ncnc2ccsc12 :: 87
COc1cc(C2=NN(c3ncnc4ccsc34)C(C)CC2)ccc1B(O)O (stereo not drawn) :: 85
COc1cc(/C=N/N(CC(C)C)c2nc(C)nc3ccsc23)ccc1B(O)O :: 84
COCCOc1ccc2c(c1)C(N(CC(C)C)/N=C/c1ccc(B(O)O)c(OC)c1)=NS2(=O)=O :: 98
Cc1ccc2c(c1)S(=O)(=O)N=C2N(CC(C)C)/N=C/c1ccc2c(c1)COB2O :: 90
CN1CCc2c1ncnc2N(C)/N=C/c1ccc2c(c1)COB2O :: 83
CCCNC(=O)c1csc2c(N(CC)/N=C/c3ccc4c(c3)COB4O)ncnc12 :: 79

---

biological target: YAP-TEAD interaction (Homo sapiens); construct: expressed in transfected cells; host or cells: HEK293 GripTite 293 MSR (Invitrogen R795-07); experiment: Cell-based TEAD-GAL4 transactivation assay (luciferase reporter); details: HEK293, 24 h, HEK293 cells transfected with TEAD1-Gal4, YAP mutant (S127A, S397A) and luciferase reporter, compounds 0.1 μM to 30 μM, read-out: TEAD-GAL4 Transactivation activity Max Act
READOUT_TYPE: Emax (%)

COc1cc(/C=N/N(CC(C)C)c2ncnc3c(C)csc23)ccc1B(O)O :: 89
CCc1csc2c(N(C)/N=C/c3ccc4c(c3)COB4O)ncnc12 :: 83
CN(/N=C/c1ccc2c(c1)COB2O)c1ncnc2c1CC(=O)N2C1CCC1 :: 83
COc1cc(OC)c2c(c1)C(N(CC(C)C)/N=C/c1ccc(B(O)O)c(Cl)c1)=NS2(=O)=O :: 95

---

target: YAP-TEAD interaction (Homo sapiens); assay: Cell-based TEAD-GAL4 transactivation assay (luciferase reporter); conditions: HEK293 cells transfected with TEAD1-Gal4, YAP mutant (S127A, S397A) and luciferase reporter; compounds 0.1 μM to 30 μM, 24 h
pIC50: −log10 of the molar value.
READOUT_TYPE: pIC50

// below: answered compounds
CCN(/N=C/c1ccc2c(c1)COB2O)c1ncnc2c1cnn2C :: 6.24
CCN(/N=C/c1ccc2c(c1)COB2O)c1ncnc2[nH]ccc12 :: 5.92
COc1cc(/C=N/N(CC(C)C)c2ncnc3cc(F)ccc23)ccc1B(O)O :: 5.66
CN(/N=C/c1ccc2c(c1)COB2O)c1ncnc2c1[nH]c(=O)n2C12CC(C1)C2 :: 5.62
COc1cc(/C=N/N(CC(C)C)c2nc(C)nc3ccsc23)ccc1B(O)O :: 5.58

a: COc1cccc2c(N3N=C(c4ccc5c(c4)COB5O)CCC3C)ncnc12 (centres unmarked)
b: CC(C)CN(/N=C/c1ccc2c(c1)COB2O)C1=NS(=O)(=O)c2ccccc21
Between a and b , whose recorded pIC50 is greater? Return value: the label identifying the chosen record.
a

---

target: YAP-TEAD interaction (Homo sapiens); construct: expressed in transfected cells; host or cells: HEK293 GripTite 293 MSR (Invitrogen R795-07); assay: Cell-based TEAD-GAL4 transactivation assay (luciferase reporter); settings: HEK293, 24 h, HEK293 cells transfected with TEAD1-Gal4, YAP mutant (S127A, S397A) and luciferase reporter, compounds 0.1 μM to 30 μM, read-out: TEAD-GAL4 Transactivation activity Max Act
READOUT_TYPE: Emax (%)

Cc1csc2c(N3N=C(c4ccc5c(c4)COB5O)CCC3C)ncnc12 (single isomer, unassigned; (+)) [Ex119] :: 77
CN(/N=C/c1ccc2c(c1)COB2O)c1ncnc2c1CCO2 [Ex101] :: 94
COc1cc(C2=NN(c3ncnc4cc(F)ccc34)CC(C)O2)ccc1B(O)O (stereo not drawn) [Ex74] :: 83
CCC(C)N(/N=C/c1ccc(B(O)O)c(OC)c1)C1=NS(=O)(=O)c2ccccc21 (stereo not drawn) [Ex 16] :: 76
CN(/N=C/c1ccc2c(c1)COB2O)C1=NS(=O)(=O)C2=C1CCCC2 [Ex 51] :: 75
CN(/N=C/c1ccc2c(c1)COB2O)c1ncnc2c1CC(=O)N2C [Ex99] :: 91

Data provenance is patent US11999758B2.
